Below: a set of entries, each annotated with reported inhibition (Mean).
target: acetylcholinesterase (from human erythrocytes) (Homo sapiens, UniProt P22303); construct: acetylcholinesterase (from human erythrocytes, purchased from Sigma-Aldrich, Seoul, Korea); purchased Sigma-Aldrich, Seoul, Korea; host or cells: human erythrocytes (natural source); experiment: biochemical; details: Conc: 0.980392 (unit not given); mean of three; Raw Data of IC50 sheet
Sequence (P22303 32-617 isoform P22303-2 limits assumed): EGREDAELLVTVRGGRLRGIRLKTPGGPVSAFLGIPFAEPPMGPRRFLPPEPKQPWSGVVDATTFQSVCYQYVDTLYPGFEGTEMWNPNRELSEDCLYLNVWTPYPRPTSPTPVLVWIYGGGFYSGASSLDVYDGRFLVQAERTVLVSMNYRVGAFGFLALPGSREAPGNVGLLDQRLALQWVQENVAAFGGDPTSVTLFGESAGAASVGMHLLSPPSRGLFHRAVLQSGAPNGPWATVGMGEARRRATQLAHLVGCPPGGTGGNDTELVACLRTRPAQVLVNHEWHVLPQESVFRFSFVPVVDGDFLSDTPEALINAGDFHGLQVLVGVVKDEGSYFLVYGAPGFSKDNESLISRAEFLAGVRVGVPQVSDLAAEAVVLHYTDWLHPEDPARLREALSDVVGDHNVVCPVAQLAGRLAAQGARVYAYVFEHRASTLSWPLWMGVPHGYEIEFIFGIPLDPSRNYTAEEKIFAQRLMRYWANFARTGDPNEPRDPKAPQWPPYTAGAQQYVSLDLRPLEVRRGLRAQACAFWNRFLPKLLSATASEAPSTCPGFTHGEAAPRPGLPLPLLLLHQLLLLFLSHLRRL

Use the examples below as a reference point.
COc1ccc(CCN(Cc2ccccc2C)S(=O)(=O)c2ccc(C)cc2)cc1 [Compound 5h] | 78.5659
COc1ccc(CCN(Cc2ccc(C)cc2)S(=O)(=O)c2ccc(C)cc2)cc1 [Compound 5j] | 59.2947
COc1ccc(CCN(Cc2cccc(C)c2)S(=O)(=O)c2ccc(C)cc2)cc1 [Compound 5i] | 77.3479

Turning now to a further compound:
Could you tell me which inhibition (Mean) is on file for COc1ccc(CCN(CCCc2ccccc2)S(=O)(=O)c2ccc(C)cc2)cc1 [Compound 5g] ?
59.2851

----------
target: acetylcholinesterase (from human erythrocytes) (Homo sapiens); construct: acetylcholinesterase (from human erythrocytes, purchased from Sigma-Aldrich, Seoul, Korea); purchased Sigma-Aldrich, Seoul, Korea; host or cells: human erythrocytes (natural source); assay: biochemical; conditions: Conc: 3.92157 (unit not given); mean of three; Raw Data of IC50 sheet
Reported Endpoint: inhibition (Mean)
Form rule: numeric answer, no unit written next to it.

Could you tell me which inhibition (Mean) is on file for `COc1ccc(CCN(Cc2ccc(C)cc2)S(=O)(=O)c2ccc(C)cc2)cc1` ?
89.7021

----------
molecular target: acetylcholinesterase (from human erythrocytes) (Homo sapiens); construct: acetylcholinesterase (from human erythrocytes, purchased from Sigma-Aldrich, Seoul, Korea); purchased Sigma-Aldrich, Seoul, Korea; host or cells: human erythrocytes (natural source); assay: biochemical; conditions: log(inhibitor) vs. response fit, single run; unit not given; IC50 Raw Data sheet
Below: a set of entries, each annotated with reported IC50 (best-fit value).
Form rule: numeric answer, no unit written next to it.

Could you tell me which IC50 (best-fit value) is on file for `COc1ccc(CCN(Cc2ccc(C)cc2)S(=O)(=O)c2ccc(C)cc2)cc1` ?
0.4136

Same thing, different compound: `COc1ccc(CCN(CCCc2ccccc2)S(=O)(=O)c2ccc(C)cc2)cc1`
0.3704

Same thing, different compound: `COc1ccc(CCN(Cc2ccccc2C)S(=O)(=O)c2ccc(C)cc2)cc1`
0.4098

Same thing, different compound: `COc1ccc(CCN(Cc2cccc(C)c2)S(=O)(=O)c2ccc(C)cc2)cc1`
0.1836

----------
target: acetylcholinesterase (from human erythrocytes) (Homo sapiens, UniProt P22303); construct: acetylcholinesterase (from human erythrocytes, purchased from Sigma-Aldrich, Seoul, Korea); purchased Sigma-Aldrich, Seoul, Korea; host or cells: human erythrocytes (natural source); experiment: biochemical; settings: Conc: 0.490196 (unit not given); mean of three; Raw Data of IC50 sheet
Below: a set of entries, each annotated with reported inhibition (Mean).
Form rule: numeric answer, no unit written next to it.

Use the examples below as a reference point.
COc1ccc(CCN(Cc2ccc(C)cc2)S(=O)(=O)c2ccc(C)cc2)cc1 [Compound 5j] | 55.0656
COc1ccc(CCN(Cc2cccc(C)c2)S(=O)(=O)c2ccc(C)cc2)cc1 [Compound 5i] | 75.1591

Turning now to a further molecule:
Could you tell me which inhibition (Mean) is on file for COc1ccc(CCN(Cc2ccccc2C)S(=O)(=O)c2ccc(C)cc2)cc1 [Compound 5h] ?
70.8325
